- Test system: Bacillus subtilis
- assay-protocol: cleaved RNA product abundance (RNA/gDNA barcode ratio) relative to median wild-type variant (ratio to wild type); higher = more accumulation of the downstream cleavage product
- protocol-conditions: experiment (reporter, strain, medium): exp 4a: truncated aprE reporter, strain BJT201 with 2% xylose (RNase J1 expressed); cleavage site: cggR-gapA (positions -7 to +36 mutated)
Quick list: cleaved RNA product abundance per entry.
Answer using only a numeral; do not append any unit.

{"columns": ["sequence-input", "cleaved RNA product abundance"],
 "data": [
  ["ACAGACGAAGGAGCCGCAAAGAAGTTATTAAAGGGTGAATAATCCCTCAATATAAATATCTCTCACTTATTTAAA", 0.202],
  ["ACAGACGAAGGAGCCGCAAAGAAGTTATTAAAGGATGAATATTCCCTCAATATAAATATCTCTCACTTATTTAAA", 0.183],
  ["ACAGACGAAGGAGCCGCAAACAAGTTATTAAGGGATGAATAATCCCTGAATATAAATATCTCTCACTTATTTAAA", 0.455]
]}

Next, consider the following sequence.
Bench note: what cleaved RNA product abundance did ACAGACGAAGGAGCCGCAAAGAAGTTATAAAGGGATGACTAATCCCTCAATATAAATATCTCTCACTTATTTAAA show?
0.286

---

- System: Bacillus subtilis
- assay-protocol: cleaved RNA product abundance (RNA/gDNA barcode ratio) relative to median wild-type variant (ratio to wild type); higher = more accumulation of the downstream cleavage product
- protocol-conditions: experiment (reporter, strain, medium): exp 8a: truncated aprE reporter, strain BJT201 with 2% xylose (RNase J1 expressed); cleavage site: glnRA (positions -5 to +31 mutated)
cleaved RNA product abundance by entry:
Simply state the number, no unit and no words.

{"columns": ["sequence-input", "reported-value"],
 "data": [
  ["CGACATGTCCCGCTTCTTTCATTAATCCGTTAGCTACTGTTTTGCTATATACATTTATCTTTTAAGAGGAGGAAT", 0.798]
]}

Would you mind telling me what cleaved RNA product abundance value was observed for CGACATGTCCCGCTTCTTTCATTAATCCGTTAACAACTATTTTGCTATATACATTTACCTTTTAAGAGGAGGAAT ?
0.275

Dear colleague, I am looking for the recorded cleaved RNA product abundance of the following sequence: CGACATGTCCCGCTTCTTTCATTAATCCGTTAGCAACTGTTCAGCTATATACATTTACCTTTTAAGAGGAGGAAT
0.344

Look at this sequence and give its reported cleaved RNA product abundance. CGACATGTCCCGCTTCTTTCATTAATTCGTTGGCAACTGTTTTGCTATATACATTTACCTTTTAAGAGGAGGAAT
0.687

Form field: reported cleaved RNA product abundance of CGACATGTCCCGCTTCTTTCATTAATCCGATAGCAACTGTTTTGTTATATACATTTACCTTTTAAGAGGAGGAAT
0.378

Recorded cleaved RNA product abundance of CGACATGTCCCGCTTCTTTCATTAATCCATAAGCAACTGTTTTGCTATATACATTTACCTTTTAAGAGGAGGAAT , please.
0.462

Which cleaved RNA product abundance value is on record for CGACATGTCCCGCTTCTTTCATTAATCCGTTAGCAACTGTCTTGCTATCTACATTTACCTTTTAAGAGGAGGAAT ?
0.0931
